# system: Coagulation factor VII/tissue factor (Homo sapiens)
# Sequence (P08709 61-212 limits assumed): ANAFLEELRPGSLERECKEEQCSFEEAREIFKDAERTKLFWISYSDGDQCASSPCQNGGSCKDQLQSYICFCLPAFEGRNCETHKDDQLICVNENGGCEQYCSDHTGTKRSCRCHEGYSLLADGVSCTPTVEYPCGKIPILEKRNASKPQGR
# Sequence (P08709 213-466 limits assumed): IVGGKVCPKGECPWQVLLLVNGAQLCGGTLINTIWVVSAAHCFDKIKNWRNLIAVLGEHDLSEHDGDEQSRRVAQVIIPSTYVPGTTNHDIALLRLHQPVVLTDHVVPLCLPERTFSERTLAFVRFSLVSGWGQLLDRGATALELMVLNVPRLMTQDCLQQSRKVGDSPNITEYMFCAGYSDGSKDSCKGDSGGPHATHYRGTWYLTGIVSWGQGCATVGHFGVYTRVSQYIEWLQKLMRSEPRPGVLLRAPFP
# Sequence (P13726 33-295 partner limits assumed): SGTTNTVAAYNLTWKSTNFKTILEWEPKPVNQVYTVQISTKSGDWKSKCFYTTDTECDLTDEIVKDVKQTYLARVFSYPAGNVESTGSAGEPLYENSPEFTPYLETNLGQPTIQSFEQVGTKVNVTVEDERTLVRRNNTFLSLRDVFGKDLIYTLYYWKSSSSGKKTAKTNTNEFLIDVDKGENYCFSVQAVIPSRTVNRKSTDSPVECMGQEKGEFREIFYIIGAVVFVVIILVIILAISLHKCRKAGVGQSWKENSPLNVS
# assay-text: Inhibition of human tissue factor/factor 7a
Non-standard residues stand in square brackets, D forms with d. Residues, ends and D or L forms follow the SMILES beside them. *: point of attachment. CH2Cl = ClC*
measured-property: IC50

Use the examples below as a reference point.
molecule	IC50
Cc1cc(C)cc(NC(=O)c2cc3cc(Cl)cc(Cl)c3oc2=O)c1	> 50 µM
NC(N)=NCCC[C@H](NC(=O)[C@H](Cc1ccccc1)NC(=O)[C@H]1CCCN1)C(=O)CCl (H-[dP]-Phe-Arg-CH2Cl)	1.5 µM
Cc1ccc(NC(=O)c2cc3cc(C)ccc3oc2=O)cc1	> 50 µM
O=C(Nc1ccccc1)c1cc2c(ccc3ccccc32)oc1=O	> 50 µM
Cc1cc(C)cc(NC(=O)c2cc3cc(Cl)cc(Br)c3oc2=O)c1	> 50 µM

Please look at the items below and tell me IC50 for each one, in order.
1. CCN(CC)c1ccc2cc(C(=O)Nc3ccccc3)c(=O)oc2c1
2. Cc1ccc2oc(=O)c(C(=O)NC(C)C)cc2c1
3. COc1cc(Br)cc2cc(C(=O)Nc3ccccc3)c(=O)oc12
4. Cc1cccc(NC(=O)c2cc3cc(Cl)cc(Br)c3oc2=O)c1

1. > 50 µM
2. > 50 µM
3. > 50 µM
4. > 50 µM

* * *

# system: Prothrombin (Homo sapiens, UniProt P00734)
# assay-text: Inhibition of human thrombin at 50 uM
Activity calls are given as the source filed them. The rule behind the calls is not given here.
measured-property: Activity

Cc1cccc(NC(=O)c2cc3cc(Cl)cc(Cl)c3oc2=O)c1 inactive
O=C(Nc1ccccc1)c1cc2cc(Cl)cc(Br)c2oc1=O inactive
Cc1ccc2oc(=O)c(C(=O)Oc3ccccc3)cc2c1 inactive
Cc1ccc2oc(=O)c(C(=O)NCc3ccccc3)cc2c1 inactive
Cc1ccc2oc(=O)c(C(=O)NC(C)C)cc2c1 inactive

Next:
Activity for `O=C(Nc1ccccc1)c1cc2ccccc2oc1=O` ?
inactive

* * *

# system: Coagulation factor X (Homo sapiens, UniProt P00742)
# Sequence (P00742 41-179 limits assumed): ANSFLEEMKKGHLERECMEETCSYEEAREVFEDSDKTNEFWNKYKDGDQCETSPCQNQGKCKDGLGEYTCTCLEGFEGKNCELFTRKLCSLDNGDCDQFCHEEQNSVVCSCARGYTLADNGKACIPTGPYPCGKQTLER
# Sequence (P00742 235-488 limits assumed): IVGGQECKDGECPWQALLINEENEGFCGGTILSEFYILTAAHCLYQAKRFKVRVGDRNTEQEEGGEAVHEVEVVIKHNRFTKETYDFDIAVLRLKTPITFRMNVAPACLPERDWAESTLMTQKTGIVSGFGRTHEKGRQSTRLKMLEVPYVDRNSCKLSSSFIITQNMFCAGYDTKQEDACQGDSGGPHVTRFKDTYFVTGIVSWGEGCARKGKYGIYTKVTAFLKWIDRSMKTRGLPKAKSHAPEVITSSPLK
# assay-text: Inhibition of human factor 10a at 50 uM
The source made the active and inactive calls. The rule behind the calls is not given here.
measured-property: Activity

O=C(Oc1ccccc1)c1cc2ccccc2oc1=O inactive
Cc1ccc2oc(=O)c(C(=O)Nc3ccc(Cl)cc3)cc2c1 inactive
Cc1ccc2oc(=O)c(C(=O)Nc3cnc4ccccc4c3)cc2c1 inactive

* * *

Entries with their measured pIC50, system Prothrombin (Homo sapiens):
pIC50: −log10 of the molar value. Non-standard residues stand in square brackets, D forms with d. Residues, ends and D or L forms follow the SMILES beside them. *: point of attachment. CH2Cl = ClC*

The examples below pair each entry with its known result.
compound	pIC50
Cc1ccc(NC(=O)c2cc3cc(C)ccc3oc2=O)cc1	< 4.30
O=C(Nc1ccccc1)c1cc2c(ccc3ccccc32)oc1=O	< 4.30
COc1cc(Br)cc2cc(C(=O)Nc3ccccc3)c(=O)oc12	< 4.30
NC(N)=NCCC[C@H](NC(=O)[C@H](Cc1ccccc1)NC(=O)[C@H]1CCCN1)C(=O)CCl (H-[dP]-Phe-Arg-CH2Cl)	5.60

Take each entry in turn and give its pIC50.
1. Cc1ccc2oc(=O)c(C(=O)NCc3cccc4ccccc34)cc2c1
2. Cc1cccc(NC(=O)c2cc3cc(C)ccc3oc2=O)c1
3. Cc1cc(C)cc(NC(=O)c2cc3cc(Cl)cc(Cl)c3oc2=O)c1
4. Cc1cc(C)cc(NC(=O)c2cc3cc(Cl)cc(Br)c3oc2=O)c1

< 4.30
< 4.30
< 4.30
< 4.30

* * *

# system: Coagulation factor XII (Homo sapiens)
Non-standard residues stand in square brackets, D forms with d. Residues, ends and D or L forms follow the SMILES beside them. *: point of attachment. CH2Cl = ClC*
measured-property: IC50 (µM)
Numbers only, in µM.

Consider the reported IC50 for these compounds:
compound	measured-property	unit-string	observed-measurement
O=C(Nc1ccccc1)c1cc2cc(Cl)cc(Br)c2oc1=O	IC50	µM	4.4
O=C(Nc1ccccc1)c1cc2cc(Br)ccc2oc1=O	IC50	µM	24
Cc1cc(C)cc(NC(=O)c2cc3cc(Cl)cc(Cl)c3oc2=O)c1	IC50	µM	4.3
Cc1ccc2oc(=O)c(C(=O)Nc3cccc(Cl)c3)cc2c1	IC50	µM	31
NC(N)=NCCC[C@H](NC(=O)[C@H](Cc1ccccc1)NC(=O)[C@H]1CCCN1)C(=O)CCl (H-[dP]-Phe-Arg-CH2Cl)	IC50	µM	0.18

I need IC50 for every entry listed below, if you could help.
1. Cc1ccc2oc(=O)c(C(=O)NC3CCCCCCCCCCC3)cc2c1
2. Cc1ccc2oc(=O)c(C(=O)Nc3ccccc3)cc2c1
3. Cc1cccc(NC(=O)c2cc3cc(C)ccc3oc2=O)c1
4. Cc1ccc2oc(=O)c(C(=O)Nc3ccccc3C)cc2c1
5. Cc1ccc2oc(=O)c(C(=O)Nc3ccccc3Cl)cc2c1

1. 33
2. 23
3. 10
4. 32
5. 30

* * *

# system: UniProtKB P00748
# assay-text: Inhibition of human factor 12a at 50 uM
Calls of active or inactive are those of the source. The rule behind the calls is not given here.
measured-property: Activity

COc1ccc2cc(C(=O)Nc3ccccc3)c(=O)oc2c1 inactive
Cc1ccc2oc(=O)c(C(=O)Oc3ccccc3)cc2c1 inactive
O=C(Nc1ccccc1)c1cc2ccc(O)cc2oc1=O inactive

* * *

Target sequence: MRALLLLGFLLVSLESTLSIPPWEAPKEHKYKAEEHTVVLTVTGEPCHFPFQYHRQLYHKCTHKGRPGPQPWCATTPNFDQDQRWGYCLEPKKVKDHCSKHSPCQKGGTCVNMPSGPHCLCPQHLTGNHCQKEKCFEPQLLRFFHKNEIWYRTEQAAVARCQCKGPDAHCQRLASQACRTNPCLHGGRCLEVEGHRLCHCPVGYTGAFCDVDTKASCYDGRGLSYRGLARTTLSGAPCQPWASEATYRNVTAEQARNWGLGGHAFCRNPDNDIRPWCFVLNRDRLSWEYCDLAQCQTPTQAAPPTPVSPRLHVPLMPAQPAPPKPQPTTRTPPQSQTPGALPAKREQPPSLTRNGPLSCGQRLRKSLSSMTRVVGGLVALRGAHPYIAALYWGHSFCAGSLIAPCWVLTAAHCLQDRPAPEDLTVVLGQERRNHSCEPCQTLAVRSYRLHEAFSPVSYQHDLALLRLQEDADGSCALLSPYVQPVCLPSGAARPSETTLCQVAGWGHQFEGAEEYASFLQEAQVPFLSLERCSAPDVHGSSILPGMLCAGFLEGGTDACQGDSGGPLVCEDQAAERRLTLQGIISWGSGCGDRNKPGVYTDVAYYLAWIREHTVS
measured-property: IC50

# example entries with known answers
COc1cc(Br)cc2cc(C(=O)Nc3ccccc3)c(=O)oc12 > 50 µM
Cc1ccc2oc(=O)c(C(=O)NCc3ccccc3)cc2c1 > 50 µM
Cc1ccc2oc(=O)c(C(=O)NCCc3ccccc3)cc2c1 > 50 µM

Consider the compound shown here: `O=C(Oc1ccccc1)c1cc2cc(CCl)ccc2oc1=O` What is its recorded IC50?
> 50 µM

Values were extracted from ChEMBL document CHEMBL1150342.
